Data origin: the Immune Epitope Database (IEDB)

System tested: HLA-B*15:03
Assay info: IEDB peptide-MHC binding, purified MHC/competitive/radioactivity; filed as Kd, often an IC50 or EC50 that approximates it; bounds were set here for any values at or beyond the usual limits of such assays
Conditions: source organism: Vaccinia virus Copenhagen
pKd: −log10 of the molar value.
Reported values of pKd for individual entries
Endpoint: pKd

> print(dat)
   sequence.record  system.tested  endpoint  assay.result
1        FHVRRLLKF    HLA-B*15:03       pKd          7.67
2        CMVICLLSF    HLA-B*15:03       pKd          6.19
3        ISSRESVSF    HLA-B*15:03       pKd          7.92
4        IMTSGVIPF    HLA-B*15:03       pKd          9.65

###

System tested: HLA-A*02:01
Assay info: IEDB peptide-MHC binding, purified MHC/direct/fluorescence; filed as Kd, often an IC50 or EC50 that approximates it; bounds were set here for any values at or beyond the usual limits of such assays
Conditions: source organism: SARS-CoV1
pKd: −log10 of the molar value.
Endpoint: pKd

> print(dat)
   sequence.record  endpoint  assay.result
1        FVDGVPFVV       pKd          6.91

###

Reported values of Kd for individual entries
System tested: HLA-A*02:03
Assay info: IEDB peptide-MHC binding, purified MHC/competitive/fluorescence; filed as Kd, often an IC50 or EC50 that approximates it; bounds were set here for any values at or beyond the usual limits of such assays
Conditions: source organism: Human immunodeficiency virus 1
Endpoint: Kd (µM)

> print(dat)
   sequence.record  system.tested  endpoint  assay.result
1        GLADQLIHM    HLA-A*02:03        Kd        0.0024
2        LYNTVATLY    HLA-A*02:03        Kd         0.571

###

System tested: HLA-B*15:09
Assay info: IEDB peptide-MHC binding, purified MHC/competitive/fluorescence; filed as Kd, often an IC50 or EC50 that approximates it; bounds were set here for any values at or beyond the usual limits of such assays
Conditions: source organism: Bacillus anthracis str. A0488
Endpoint: Kd

> print(dat)
   sequence.record  assay.result
1        KVQEWYLSY       ≥ 20 µM

###

System tested: HLA-B*40:01
Assay info: IEDB peptide-MHC binding, purified MHC/direct/fluorescence; filed as Kd, often an IC50 or EC50 that approximates it; bounds were set here for any values at or beyond the usual limits of such assays
Conditions: source organism: Cryptosporidium parvum
Endpoint: Kd

> print(dat)
   sequence.record  system.tested  assay.result
1        WLPWIPQLI    HLA-B*40:01       ≥ 20 µM

###

System tested: HLA-B*15:17
Assay info: IEDB peptide-MHC binding, purified MHC/competitive/fluorescence; filed as Kd, often an IC50 or EC50 that approximates it; bounds were set here for any values at or beyond the usual limits of such assays
Conditions: source organism: Zaire ebolavirus
Endpoint: Kd

> print(dat)
   sequence.record  system.tested  assay.result
1        HLSGWELAK    HLA-B*15:17       ≥ 20 µM
2        RVPTVFHKK    HLA-B*15:17       ≥ 20 µM
